Data credit: BigSolDB 2.1

Details: in methanol, 287.37 K
readout.type: solubility (mole fraction)
Give a plain numeric answer without units written out.

Query: Query (compound): CCCCCCOC(=O)NC(=N)c1ccc(NCc2nc3cc(C(=O)N(CCC(=O)OCC)c4ccccn4)ccc3n2C)cc1.CS(=O)(=O)O ; field requested: solubility (mole fraction)
Result: 0.0158

---

Details: in methanol, 313.59 K
readout.type: solubility (mole fraction)
// print number alone

Query: Returns the measured solubility (mole fraction) for the input compound. Input: CCCCCCOC(=O)NC(=N)c1ccc(NCc2nc3cc(C(=O)N(CCC(=O)OCC)c4ccccn4)ccc3n2C)cc1.CS(=O)(=O)O
Result: 0.0389

---

Conditions: in ethanol, 313.59 K
readout.type: solubility (mole fraction)

Query: What does the record list as solubility (mole fraction) for CCCCCCOC(=O)NC(=N)c1ccc(NCc2nc3cc(C(=O)N(CCC(=O)OCC)c4ccccn4)ccc3n2C)cc1.CS(=O)(=O)O ?
Result: 0.00343

---

Settings: in DMF, 323.39 K
readout.type: solubility (mole fraction)
Answer using only a numeral; do not append any unit.

Query: What value of solubility (mole fraction) has been reported for the following molecule? CCCCCCOC(=O)NC(=N)c1ccc(NCc2nc3cc(C(=O)N(CCC(=O)OCC)c4ccccn4)ccc3n2C)cc1.CS(=O)(=O)O
Result: 0.0385

---

Settings: in DMF, 292.2 K
readout.type: solubility (mole fraction)

Query: Which measured solubility (mole fraction) value corresponds to CCCCCCOC(=O)NC(=N)c1ccc(NCc2nc3cc(C(=O)N(CCC(=O)OCC)c4ccccn4)ccc3n2C)cc1.CS(=O)(=O)O ?
Result: 0.0229

---

Settings: in DMAc, 287.37 K
readout.type: solubility (mole fraction)
Answer with a bare number; do not write a unit.

Query: Could you tell me which solubility (mole fraction) is on file for CCCCCCOC(=O)NC(=N)c1ccc(NCc2nc3cc(C(=O)N(CCC(=O)OCC)c4ccccn4)ccc3n2C)cc1.CS(=O)(=O)O ?
Result: 0.0228

---

Settings: in DMF, 308.88 K
readout.type: solubility (mole fraction)

Query: May I ask what solubility (mole fraction) has been recorded for CCCCCCOC(=O)NC(=N)c1ccc(NCc2nc3cc(C(=O)N(CCC(=O)OCC)c4ccccn4)ccc3n2C)cc1.CS(=O)(=O)O ?
Result: 0.0294

---

Conditions: in ethanol, 303.97 K
readout.type: solubility (mole fraction)
Could you keep your reply to the number by itself?

Query: Param item = CCCCCCOC(=O)NC(=N)c1ccc(NCc2nc3cc(C(=O)N(CCC(=O)OCC)c4ccccn4)ccc3n2C)cc1.CS(=O)(=O)O ; retrieve measured solubility (mole fraction).
Result: 0.00208

---

Settings: in ethylene glycol, 308.88 K
readout.type: solubility (mole fraction)
When you answer, write just the number.

Query: May I ask what solubility (mole fraction) has been recorded for CCCCCCOC(=O)NC(=N)c1ccc(NCc2nc3cc(C(=O)N(CCC(=O)OCC)c4ccccn4)ccc3n2C)cc1.CS(=O)(=O)O ?
Result: 0.00961

---

Conditions: in ethanol, 323.39 K
readout.type: solubility (mole fraction)
Please respond with just the number, no unit label.

Query: Quick one: solubility (mole fraction) of CCCCCCOC(=O)NC(=N)c1ccc(NCc2nc3cc(C(=O)N(CCC(=O)OCC)c4ccccn4)ccc3n2C)cc1.CS(=O)(=O)O ?
Result: 0.00626

---

Conditions: in DMF, 287.37 K
readout.type: solubility (mole fraction)
Reply with just the number.

Query: Value lookup for solubility (mole fraction); key = CCCCCCOC(=O)NC(=N)c1ccc(NCc2nc3cc(C(=O)N(CCC(=O)OCC)c4ccccn4)ccc3n2C)cc1.CS(=O)(=O)O
Result: 0.0217

---

Conditions: in ethylene glycol, 297.95 K
readout.type: solubility (mole fraction)
Answer with a bare number; do not write a unit.

Query: I would be grateful if you could share the reported solubility (mole fraction) for CCCCCCOC(=O)NC(=N)c1ccc(NCc2nc3cc(C(=O)N(CCC(=O)OCC)c4ccccn4)ccc3n2C)cc1.CS(=O)(=O)O .
Result: 0.00619

---

Settings: in ethanol, 292.2 K
readout.type: solubility (mole fraction)
Give the figure by itself; no unit, no explanation.

Query: Quick check: solubility (mole fraction) of CCCCCCOC(=O)NC(=N)c1ccc(NCc2nc3cc(C(=O)N(CCC(=O)OCC)c4ccccn4)ccc3n2C)cc1.CS(=O)(=O)O ?
Result: 0.00116

---

Details: in methanol, 303.97 K
readout.type: solubility (mole fraction)
Please respond with just the number, no unit label.

Query: Fill in the blank: the reported solubility (mole fraction) of CCCCCCOC(=O)NC(=N)c1ccc(NCc2nc3cc(C(=O)N(CCC(=O)OCC)c4ccccn4)ccc3n2C)cc1.CS(=O)(=O)O is ____.
Result: 0.0274

---

Details: in ethanol, 318.4 K
readout.type: solubility (mole fraction)
Kindly provide the number alone.

Query: Using the record for CCCCCCOC(=O)NC(=N)c1ccc(NCc2nc3cc(C(=O)N(CCC(=O)OCC)c4ccccn4)ccc3n2C)cc1.CS(=O)(=O)O , report its solubility (mole fraction).
Result: 0.00458

---

Details: in DMAc, 308.88 K
readout.type: solubility (mole fraction)

Query: solubility (mole fraction); subject: CCCCCCOC(=O)NC(=N)c1ccc(NCc2nc3cc(C(=O)N(CCC(=O)OCC)c4ccccn4)ccc3n2C)cc1.CS(=O)(=O)O
Result: 0.0311

---

Conditions: in ethylene glycol, 318.4 K
readout.type: solubility (mole fraction)
Write the value as a bare number.

Query: Entry under review: CCCCCCOC(=O)NC(=N)c1ccc(NCc2nc3cc(C(=O)N(CCC(=O)OCC)c4ccccn4)ccc3n2C)cc1.CS(=O)(=O)O . Reported solubility (mole fraction)?
Result: 0.0143

---

Settings: in DMF, 303.97 K
readout.type: solubility (mole fraction)
Please reply with the value in numeric form only.

Query: Using the record for CCCCCCOC(=O)NC(=N)c1ccc(NCc2nc3cc(C(=O)N(CCC(=O)OCC)c4ccccn4)ccc3n2C)cc1.CS(=O)(=O)O , report its solubility (mole fraction).
Result: 0.0269
